- Assayed Target: T1, biotin-peptide TDFTSPIPNM (human)
- T1 peptide: Biotin-TDFTSPIPNM
- Experiment Description: ELISA biotin-peptide; scFv 10 ug/mL; repI
Where no end group is shown, it is not given here. The star is where a group is joined. Biotin = O=C1N[C@H]2[C@H](CS[C@H]2CCCCC(=O)*)N1
Could you please report measured OD450 for the items listed next?
Write the answer as a number in OD, unit excluded.

In: Suppose we examine the binder Comparative antibody 2 (Comp-2) scFv, 243LO326 (VH SEQ ID NO: 51 and VL SEQ ID NO: 52 of WO 2022/195028 A2), His-tagged (scFv) scFv: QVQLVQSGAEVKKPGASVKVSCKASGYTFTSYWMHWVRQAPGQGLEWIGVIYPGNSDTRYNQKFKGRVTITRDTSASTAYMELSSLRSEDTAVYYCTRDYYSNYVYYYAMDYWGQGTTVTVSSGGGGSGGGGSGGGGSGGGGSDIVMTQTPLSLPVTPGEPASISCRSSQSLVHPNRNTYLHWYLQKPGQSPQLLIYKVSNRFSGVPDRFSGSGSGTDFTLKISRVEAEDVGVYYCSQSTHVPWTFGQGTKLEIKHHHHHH ; what OD450 value has been reported?
Out: 0.1

In: Suppose we examine the binder Comparative antibody 1 (Comp-1) scFv, SEQ ID NO: 10 from WO2023/037125 A1, His-tagged (scFv) scFv: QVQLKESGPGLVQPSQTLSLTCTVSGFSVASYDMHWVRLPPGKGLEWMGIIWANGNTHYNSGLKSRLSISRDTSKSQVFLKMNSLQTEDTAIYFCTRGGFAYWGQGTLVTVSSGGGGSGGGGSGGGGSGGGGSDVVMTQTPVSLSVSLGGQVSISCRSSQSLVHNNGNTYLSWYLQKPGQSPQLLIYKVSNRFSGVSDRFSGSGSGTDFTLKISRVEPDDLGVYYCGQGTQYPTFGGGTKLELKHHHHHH ; what OD450 value has been reported?
Out: 0.06

In: Suppose we examine the binder CCR9_HUM2 scFv (humanized anti-CCR9 scFv, SEQ ID NO: 17 with C-terminal 6xHis tag) (scFv) scFv: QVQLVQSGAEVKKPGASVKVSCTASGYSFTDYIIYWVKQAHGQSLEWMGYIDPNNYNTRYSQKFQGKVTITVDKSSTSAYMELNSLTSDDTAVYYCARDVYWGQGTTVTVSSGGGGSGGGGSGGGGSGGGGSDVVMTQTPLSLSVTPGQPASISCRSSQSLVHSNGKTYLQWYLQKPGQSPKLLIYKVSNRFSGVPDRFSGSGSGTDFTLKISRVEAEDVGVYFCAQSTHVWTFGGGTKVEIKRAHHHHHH ; what OD450 value has been reported?
Out: 0.12

In: Suppose we examine the binder Comparative antibody 3 (Comp-3) scFv, SR_92R (Somovilla-Crespo et al. 2018), His-tagged (scFv) scFv: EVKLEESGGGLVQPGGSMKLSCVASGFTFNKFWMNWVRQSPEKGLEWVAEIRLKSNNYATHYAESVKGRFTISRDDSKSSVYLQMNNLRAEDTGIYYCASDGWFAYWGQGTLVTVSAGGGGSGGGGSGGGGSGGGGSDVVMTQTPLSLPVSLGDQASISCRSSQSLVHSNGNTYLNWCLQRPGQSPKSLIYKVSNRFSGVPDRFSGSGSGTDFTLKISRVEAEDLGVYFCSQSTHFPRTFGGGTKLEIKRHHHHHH ; what OD450 value has been reported?
Out: 0.11
